Please provide measured pIC50 for the entries that follow.
- Measurement Target: squalene synthetase (Rattus norvegicus, UniProt Q02769)
- Construct: from tissue; host or cells: liver of male SD rats (microsome fraction)
- Sequence (Q02769 1-416): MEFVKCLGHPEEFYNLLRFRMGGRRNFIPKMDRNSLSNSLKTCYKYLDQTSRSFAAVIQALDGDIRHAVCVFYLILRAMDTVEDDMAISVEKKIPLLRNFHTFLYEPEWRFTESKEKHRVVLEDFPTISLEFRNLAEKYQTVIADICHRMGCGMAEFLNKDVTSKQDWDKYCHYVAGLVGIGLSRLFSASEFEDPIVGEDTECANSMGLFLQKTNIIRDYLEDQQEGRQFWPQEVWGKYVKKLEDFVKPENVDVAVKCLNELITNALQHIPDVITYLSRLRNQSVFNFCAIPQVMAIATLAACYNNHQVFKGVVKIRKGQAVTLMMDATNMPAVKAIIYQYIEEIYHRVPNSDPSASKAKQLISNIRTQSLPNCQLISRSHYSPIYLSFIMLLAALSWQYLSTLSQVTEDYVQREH
- Assay Protocol: Squalene synthetase inhibitory activity, rat enzyme (rat liver microsome fraction)
- Format: biochemical
- Test Context: IC50, squalene synthetase inhibitory activity, Rat enzyme, 5 μM [1-3H]farnesylpyrophosphoric acid, pH 7.4, 37° C., 45 minutes
Counter-ions that a name gives are not always drawn.
# pIC50 = -log10(concentration in molar units)

Which pIC50 value belongs to CCOP(=O)(O)C(NC/C=C(\C)CC/C=C(\C)CCC=C(C)C)P(=O)(O)O (centres unmarked) [Compound No. 111, monosodium salt] ?
7.72

Which pIC50 value belongs to CCOP(=O)(O)C(NCCCCCCSc1ccccc1)P(=O)(O)O (centres unmarked) [Compound No. 113, monosodium salt] ?
7.82
